Reported log10 IC50 values for a set of compounds
# Tested on: human TLR9 (Homo sapiens)
# Test: TLR9 inhibition reporter assay (HEK-Blue SEAP reporter, ODN2006 stimulation)
# Conditions used: HEK-Blue cells overexpressing human TLR9, SEAP reporter, ODN2006 5 nM, 22 hour incubation
// do not treat as linear: log10 of IC50, unit µM

Kindly note the recorded log10 IC50 for COc1cc(-c2[nH]c3ccc(C4CCN(C5COC5)CC4)cc3c2C(C)C)c(C)n(C)c1=O [Example 217] , which is 1.04

Kindly note the recorded log10 IC50 for Cc1cc(-c2[nH]c3ccc(C4CCN(CC(O)C(C)C)CC4)cc3c2C(C)C)cn(C)c1=O (stereo not shown) [Example 324] , which is 1.06

Kindly note the recorded log10 IC50 for CCCN1CCC(c2ccc3[nH]c(-c4cc(-c5cnc(C6CC6)nc5)c(=O)n(C)c4)c(C(C)C)c3c2)CC1 [Example 338] , which is -0.11

Kindly note the recorded log10 IC50 for CCCCN1CCC(c2ccc3[nH]c(-c4cn(C)c(=O)c(Cl)c4C)c(C(C)C)c3c2)CC1 [Example 251] , which is 0.55

Continuing:
Kindly note the recorded log10 IC50 for COCCOCCN1CCC(c2ccc3[nH]c(-c4cn(C)c(=O)c(Cl)c4C)c(C(C)C)c3c2)CC1 [Example 101] , which is 0.69

Kindly note the recorded log10 IC50 for CC(C)c1c(-c2ccc(=O)n(C)c2)[nH]c2ccc(C3CCN(C4COC4)CC3)cc12 [Example 179] , which is 0.59

Kindly note the recorded log10 IC50 for COc1cc(-c2[nH]c3ccc(C4CCN(CC(=O)N(C)C)CC4)cc3c2C(C)C)cn(C)c1=O [Example 128] , which is -0.01

----------
Reported pIC50 values for a set of molecules
# Tested on: human TLR9 (Homo sapiens, UniProt Q9NR96)
# Sequence (Q9NR96 26-1032): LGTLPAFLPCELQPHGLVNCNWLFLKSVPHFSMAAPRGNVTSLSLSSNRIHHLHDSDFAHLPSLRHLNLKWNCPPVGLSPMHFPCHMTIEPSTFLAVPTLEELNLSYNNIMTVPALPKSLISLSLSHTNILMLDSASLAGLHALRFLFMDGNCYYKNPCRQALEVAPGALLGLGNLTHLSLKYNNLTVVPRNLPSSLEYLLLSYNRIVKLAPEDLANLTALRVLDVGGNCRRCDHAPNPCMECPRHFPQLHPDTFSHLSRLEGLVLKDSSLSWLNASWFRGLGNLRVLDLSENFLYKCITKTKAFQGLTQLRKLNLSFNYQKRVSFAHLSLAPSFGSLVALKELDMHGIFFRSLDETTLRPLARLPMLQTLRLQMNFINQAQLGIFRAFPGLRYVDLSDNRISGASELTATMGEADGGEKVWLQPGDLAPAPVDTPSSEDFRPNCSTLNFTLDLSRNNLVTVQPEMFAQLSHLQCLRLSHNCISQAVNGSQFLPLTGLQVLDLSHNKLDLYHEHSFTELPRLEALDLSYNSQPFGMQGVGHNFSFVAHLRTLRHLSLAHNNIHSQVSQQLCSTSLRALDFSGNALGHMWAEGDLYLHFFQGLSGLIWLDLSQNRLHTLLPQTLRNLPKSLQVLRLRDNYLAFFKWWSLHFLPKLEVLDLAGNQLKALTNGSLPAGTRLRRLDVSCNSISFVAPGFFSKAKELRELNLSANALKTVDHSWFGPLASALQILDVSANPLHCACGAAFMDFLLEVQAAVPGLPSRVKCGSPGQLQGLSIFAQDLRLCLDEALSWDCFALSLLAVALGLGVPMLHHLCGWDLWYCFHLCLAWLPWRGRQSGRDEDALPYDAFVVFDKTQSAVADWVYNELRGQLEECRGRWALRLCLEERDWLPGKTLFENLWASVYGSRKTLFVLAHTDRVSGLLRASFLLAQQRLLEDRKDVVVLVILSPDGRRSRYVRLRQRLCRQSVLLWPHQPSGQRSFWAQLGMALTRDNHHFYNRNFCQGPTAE
# Test: TLR9 inhibition reporter assay (HEK-Blue SEAP reporter, ODN2006 stimulation)
# Conditions used: HEK-Blue cells overexpressing human TLR9, SEAP reporter, ODN2006 5 nM, 22 hour incubation
Recall that pIC50 is obtained by taking minus log10 of the concentration measured in molar.

Kindly note the recorded pIC50 for Cc1cc(-c2[nH]c3ccc(C4CCN(C5CCOC5)CC4)cc3c2C(C)C)nn(C)c1=O (stereo not shown) [Example 193] , which is 5.05

Kindly note the recorded pIC50 for COCc1cc(-c2[nH]c3ccc(C4CCN(C5COC5)CC4)cc3c2C(C)C)cn(C)c1=O [Example 346] , which is 4.78

Kindly note the recorded pIC50 for CCc1cc(-c2[nH]c3ccc(C4CCNCC4)cc3c2C(C)C)cn(C)c1=O [Example 67] , which is 6.04
